Cited source for all entries: PubChem BioAssay (NCI)

System: NCI/ADR-RES ovarian
Assay protocol: NCI-60 one-dose screen, 48 h
Condition info: 10 µM unless noted
About 83,000 compounds went through this panel and 20% of them were active in at least one assay; those are over-represented in the sample as a whole. Active and inactive are the calls of the source. How the source made its calls: active means growth percent below 10; inactive means the rest.
Classes used: yes = active, no = inactive

> print(dat)
                                    compound          system.name  class
 1  CC1=C(NCCN2CCCC2)C(=O)c2c(OCc3cccc(Cl)c3)cccc2C1=O  NCI/ADR-RES ovarian     no
 2  CN(C)CCCC(=O)Nc1ccc(Cn2nnc3c2C(=O)c2nnn(Cc4ccc(NC(=O)CCCN(C)C)cc4)c2C3=O)cc1  NCI/ADR-RES ovarian     no
 3  CCCCOc1ccc(NC(=O)n2nc(NC(C)=O)c3cc(NC(C)=O)ccc32)cc1  NCI/ADR-RES ovarian     no
 4  O=C(Cn1cc(CN2C(=O)c3ccccc3S2(=O)=O)nn1)Nc1ccc([N+](=O)[O-])cc1Cl  NCI/ADR-RES ovarian     no
 5   Brc1cccc(-c2nc(-c3ccc4c(c3)OCCO4)co2)c1  NCI/ADR-RES ovarian     no
 6  COc1cc(-c2c3sc(=O)[nH]c3nc3c2c(=O)[nH]n3C(C)C)cc2c1OCO2  NCI/ADR-RES ovarian     no
 7  COCCOc1ccc(-c2nc3ccc(-c4nc5ccc(N6CCN(C)CC6)cc5[nH]4)cc3[nH]2)cc1  NCI/ADR-RES ovarian     no
 8  O=C(CO[N+](=O)[O-])Nc1ccc(C(=O)/C=C/c2ccc3c(c2)OCO3)cc1  NCI/ADR-RES ovarian     no
 9              c1ccc(CSc2ncnc3nc[nH]c23)nc1  NCI/ADR-RES ovarian     no
10  C=CC[N+]1(CC)CCN=C1CCCCCCCCCCCCCCCCC (stereo not drawn)  NCI/ADR-RES ovarian    yes
11  COc1nc2c(cc1S(=O)(=O)c1ccccc1)CCc1c-2cnn1-c1ccc(Cl)cc1  NCI/ADR-RES ovarian     no
12  Cc1ccc(S(=O)(=O)n2cc(-c3csc(-c4cn(C)c5ncccc45)n3)c3ccccc32)cc1  NCI/ADR-RES ovarian     no
13  O=S(=O)(NCCCNc1cc(-c2cn(-c3ccccc3)nc2-c2ccccc2)ccn1)c1ccc(C(F)(F)F)cc1  NCI/ADR-RES ovarian     no
14  COc1cc(/C=N\NC(=O)CN2CCN(c3cc4c(cc3F)c(=O)c(C(=O)N/N=C/c3ccc(O)c(OC)c3)cn4C3CC3)CC2)ccc1O  NCI/ADR-RES ovarian     no
15  CCN(CC)CCC(=O)Nc1ccc(Cn2nnc3c2C(=O)c2nnn(Cc4ccc(NC(=O)CCN(CC)CC)cc4)c2C3=O)cc1  NCI/ADR-RES ovarian     no
16  CCOC(=O)c1c2c(n3ccc(NC(=O)CCN4CCCCC4)cc13)C(=O)c1ncccc1C2=O  NCI/ADR-RES ovarian     no
17  C=C1C(=O)O[C@H]2[C@H]1CC/C(Cn1cc(Cc3c[nH]c4ccccc34)nn1)=C\CC[C@@]1(C)O[C@@H]21  NCI/ADR-RES ovarian     no
18  O=C(CN1CCN(c2cc3c(cc2F)c(=O)c(C(=O)O)cn3C2CC2)CC1)Nc1cc(=O)[nH]c(=O)[nH]1  NCI/ADR-RES ovarian     no
